- tested-system: Solute carrier family 2, facilitated glucose transporter member 1 (Homo sapiens) (UniProt P11166)
- Sequence (P11166 whole entry): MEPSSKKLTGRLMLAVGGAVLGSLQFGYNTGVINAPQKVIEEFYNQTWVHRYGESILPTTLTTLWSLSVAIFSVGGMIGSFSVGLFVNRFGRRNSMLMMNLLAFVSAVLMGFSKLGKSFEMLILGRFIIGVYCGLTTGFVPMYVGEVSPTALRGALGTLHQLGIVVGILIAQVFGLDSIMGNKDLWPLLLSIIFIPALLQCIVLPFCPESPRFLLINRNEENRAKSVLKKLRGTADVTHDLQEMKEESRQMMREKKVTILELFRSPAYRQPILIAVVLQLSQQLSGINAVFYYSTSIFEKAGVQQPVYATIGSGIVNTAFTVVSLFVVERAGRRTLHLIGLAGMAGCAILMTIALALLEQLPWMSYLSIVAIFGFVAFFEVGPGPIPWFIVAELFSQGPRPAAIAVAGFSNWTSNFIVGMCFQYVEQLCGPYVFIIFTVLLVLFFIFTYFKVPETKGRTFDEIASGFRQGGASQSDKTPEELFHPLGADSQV
- assay: ST_JUDE_LEISH: Cytotoxicity at 2uM final concentration against transgenic Leishmania Mexicana promastigotes LmGLUT1 that are glucose transport deficient and complemented with the human glucose transporter GLUT1. Activity is measured by DNA content using SYBR green in vitro
- Assay type: functional
We begin with a simple list: items and their reported inhibition.
Numbers only here, please. The scale is %.

Guide cases for inhibition, answers given:
{"compound": "O=C(NCCCCN1CCC(c2ccc3c(c2OCC2CC2)CCCC3)CC1)c1ccc(NC(=O)c2ccc(Cl)cc2)cc1", "units-label": "%", "inhibition": 7.74}
{"compound": "c1ccc(CNCc2ccc(-c3cccc(-c4nc5ccccc5[nH]4)c3)cc2)cc1", "units-label": "%", "inhibition": -1.6}
{"compound": "COc1ccc2nc(C)cc(Nc3ccc(Oc4ccc5ccccc5c4Cl)c(Cl)c3)c2c1", "units-label": "%", "inhibition": 13.7}
{"compound": "CNC(=O)c1ccc(/C=C/C(=O)N2CCc3ccc(-c4ccccc4)cc3C2c2cccc(C(F)(F)F)c2)cc1 (centres undefined)", "units-label": "%", "inhibition": 2.29}
{"compound": "CNC(=O)c1ccccc1Nc1nc(Nc2cccc(CS(C)(=O)=O)c2)ncc1C", "units-label": "%", "inhibition": 3.44}
{"compound": "O=c1cc(NCCCNC2CCc3ccc(Cl)cc32)[nH]c2ccccc12 (centres undefined)", "units-label": "%", "inhibition": -2.61}

Lookup: Please report inhibition for the following compound: CC(C)C(=O)NC(NC(=S)Nc1ccc(Br)cc1)C(Cl)(Cl)Cl (centres undefined)
Found: -2.18

Lookup: Please report inhibition for the following compound: "Cc1ccc(O)cc1Nc1ccnc2cc(-c3csc(CN4CCN(C)CC4)n3)ccc12"
Found: 8.26

Lookup: Please report inhibition for the following compound: "CC(=O)c1ccc(NC(=O)Nc2ccc(N(C)c3ccnc(NC4CC4)n3)cc2)cc1"
Found: -0.95

----------
- tested-system: Solute carrier family 2, facilitated glucose transporter member 1 (Homo sapiens) (UniProt P11166)
- assay: ST_JUDE_LEISH: Cytotoxicity at 2uM final concentration against transgenic Leishmania Mexicana promastigotes LmGLUT1 that are glucose transport deficient and complemented with the human glucose transporter GLUT1. Activity is measured by DNA content using SYBR green in vitro
- Format: functional
We begin with a simple list: items and their reported inhibition.
Numbers only here, please. The scale is %.

Guide cases for inhibition, answers given:
{"compound": "O=C(Cc1ccc[n+]([O-])c1)Nc1cccc(-c2cccc(-c3nc4cc(C(F)(F)F)ccc4[nH]3)c2)c1", "measured-result": 2.28}
{"compound": "CC(=O)N(C)C1CCN(Cc2cccc(-c3ccc(-c4nc5cc(F)ccc5[nH]4)cc3)c2)C1 (stereo not drawn)", "measured-result": 3.46}
{"compound": "CC(C)NCc1ccc(OCc2cccc(COc3ccc(CNC(C)C)cc3I)c2)c(I)c1", "measured-result": 112}
{"compound": "CC(C)CC(C)NC(=O)C1Cc2c([nH]c3ccc(F)cc23)C2(CCN(Cc3ccccc3)CC2)N1 (stereo not drawn)", "measured-result": 7.56}
{"compound": "Cc1ccccc1-c1nc2c(CN3CCC(O)(c4ccccc4)CC3)c(O)ccc2[nH]1", "measured-result": 11.5}
{"compound": "CCN(CC)CCN(CCCc1ccc(-c2ccc(C(F)(F)F)cc2)cc1)C(=O)Cn1c(CCc2cccc(F)c2F)nc(=O)c2c1CCC2", "measured-result": -2.04}

Lookup: Please report inhibition for the following compound: "CCN(CC)CCN(Cc1ccc(-c2ccc(C(F)(F)F)cc2)cc1)C(=O)Cn1c(CCc2c(F)cc(F)cc2F)nc(=O)c2ccccc21"
Found: -0.61

Lookup: Please report inhibition for the following compound: "COc1cccc2sc(N3CCN(C(=O)c4ccc([N+](=O)[O-])o4)CC3)nc12"
Found: 2.53

Lookup: Please report inhibition for the following compound: "CCc1ccc(-c2nc3cc(NC(=O)c4ccc([N+](=O)[O-])o4)ccc3o2)cc1"
Found: 1.01

Lookup: Please report inhibition for the following compound: "Cn1cncc1CCN(Cc1ccc(-c2ccc(C(F)(F)F)cc2)cc1)C(=O)Cn1c(CCc2cccc(F)c2F)cc(=O)c2cccnc21"
Found: 1.83

Lookup: Please report inhibition for the following compound: COc1ccc(C23Oc4cc(OC)cc(OC)c4C2(O)C2(CC3c3ccccc3)SCCCS2)cc1 (stereo not drawn)
Found: 0.76

Lookup: Please report inhibition for the following compound: "Cc1c(Cc2ccc(C(C)C)cc2)cnc2nc(N)nc(N)c12"
Found: 1.34

Lookup: Please report inhibition for the following compound: "CC(C)CCN(Cc1cncn1Cc1cccc(C(F)(F)F)c1)C(=O)c1cncc(-c2ccccc2)c1"
Found: 3.6

Lookup: Please report inhibition for the following compound: Cc1cc(NC(=O)c2cccs2)ccc1OC1CCN(Cc2ccc(C#N)cc2)C1 (stereo not drawn)
Found: 2.86

Lookup: Please report inhibition for the following compound: "CN(C)CCCNc1ncnc2c1[nH]c1ccc(F)cc12"
Found: 7.06

Lookup: Please report inhibition for the following compound: O=C(NCC1CCC(C(=O)NCCN2CCCCC2)CC1)c1ccc(O)c(-c2ccc(Cl)c(Cl)c2)c1 (stereo not drawn)
Found: -0.83

Lookup: Please report inhibition for the following compound: "COc1ccc(CCNC(=O)c2ccc(-n3cc(NC(=O)c4cccnc4)cn3)cc2)cc1OC"
Found: 3.78

Lookup: Please report inhibition for the following compound: "O=C(Cc1ccc[n+]([O-])c1)Nc1cccc(-c2cccc(-c3nc4cc(F)ccc4[nH]3)c2)c1"
Found: 1.61
